- assay comment: Pharmacokinetics in humans, MRTX1133 formulation, oral, single and multiple doses
- Format: in vivo
- assay conditions: human, plasma, po, 800 mg, multiple oral doses of 800 mg BID, fasted; Geo Mean of subjects; read-out: AUC0-last
measured attribute: AUC(0-t) (µg·h/mL)

>  <smiles data>
C#Cc1c(F)ccc2cc(O)cc(-c3ncc4c(N5C[C@H]6CC[C@@H](C5)N6)nc(OC[C@@]56CCCN5C[C@H](F)C6)nc4c3F)c12

>  <measured attribute>
AUC(0-t)

>  <units of measure>
µg·h/mL

>  <result number>
0.477

$$$$

---

- assay comment: Pharmacokinetics in humans, MRTX1133 formulation, oral, single and multiple doses
- Assay type: in vivo
- assay conditions: human, plasma, po, 200 mg, single oral dose of 200 mg, fasted; 12 h; mean of subjects; read-out: Plasma concentration, Mean

>  <smiles data>
C#Cc1c(F)ccc2cc(O)cc(-c3ncc4c(N5C[C@H]6CC[C@@H](C5)N6)nc(OC[C@@]56CCCN5C[C@H](F)C6)nc4c3F)c12

>  <units of measure>
ng/mL

>  <concentration at 12 h>
4.44

$$$$

---

- assay comment: Pharmacokinetics in humans, MRTX1133 formulation, oral, single and multiple doses
- Format: in vivo
- assay conditions: human, plasma, po, 400 mg, single oral dose of 400 mg, fasted; geometric mean of subjects; read-out: AUC0-last, Geo Mean

>  <smiles data>
C#Cc1c(F)ccc2cc(O)cc(-c3ncc4c(N5C[C@H]6CC[C@@H](C5)N6)nc(OC[C@@]56CCCN5C[C@H](F)C6)nc4c3F)c12

>  <AUC(0-t) / ng·h/mL>
278

$$$$

---

- assay comment: Pharmacokinetics in humans, MRTX1133 formulation, oral, single and multiple doses
- Type: in vivo
- assay conditions: human, plasma, po, 400 mg, single oral dose of 400 mg with a low-fat meal; individual subjects; read-out: T1/2 (converted)
measured attribute: half-life (h)

>  <smiles data>
C#Cc1c(F)ccc2cc(O)cc(-c3ncc4c(N5C[C@H]6CC[C@@H](C5)N6)nc(OC[C@@]56CCCN5C[C@H](F)C6)nc4c3F)c12

>  <result number>
27.2

$$$$
